target: T1, extracellular domain of rhesus monkey BCMA (rhesus monkey, UniProt F7FFA0 1-53); assay: Octet BLI; Fab 200 nM
T1 construct: extracellular domain; also called RhBCMA
T1 sequence (F7FFA0 entry or part of it): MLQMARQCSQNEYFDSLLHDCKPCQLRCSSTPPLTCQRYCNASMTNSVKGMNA
Measured attribute: pKd
A value of pKd is the negative decimal logarithm of a concentration given in moles per litre.

AB200-(2Vk35)_R2-VH-v62 (Fab, V domains shown) VH: QVQLVQSGAEVKKPGSSVKVSCKASGGTFSNYWIHWVRQAPGQGLEWMGGTYRIHSDTYYNEKFKSRVTITADKSTSTAYMELSSLRSEDTAVYYCARGAIYHGYDVIENWGQGTLVTVSS VL: DIQMTQSPSSLSASVGDRVTITCRASQSISSYINWYQQKPGKAPKLLIYATSNLQSGVPSRFSGSGSGTDFTLTISSLQPEDFATYYCQQYRRIPWTFGQGTKLEIKR = 7.31

Consider the record given below.
[Q] Data request, read-out pKd, for AB200-(2Vk35)_R2-VH-v48 (Fab, V domains shown) VH: QVQLVQSGAEVKKPGSSVKVSCKASGGTYSNYWIHWVRQAPGQGLEWMGGTYRIHSTTYYNQKFKSRVTITADKSTSTAYMELSSLRSEDTAVYYCARGAIYHGFDVIDNWGQGTLVTVSS VL: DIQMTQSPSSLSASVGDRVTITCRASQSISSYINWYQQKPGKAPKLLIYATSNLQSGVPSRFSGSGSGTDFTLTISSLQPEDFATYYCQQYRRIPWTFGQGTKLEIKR
[A] 7.28
